# Test system: Plutella xylostella
# Protocol text: Insecticidal activity against Plutella xylostella (Airbrush spray on cabbage leaf discs)
# Assay type: in vivo
# Test settings: Plutella xylostella, foliar, 72 h; Table 71, 10 mg/L, 3 d after administration; read-out: Fatality rate (%, 3 d after administration) 10 mg/L
# Procedure: The compound to be tested was dissolved by a mixed solvent of acetone/methanol (1:1), and then diluted by water containing 0.1% (wt) Tween 80 to the required concentration. An Airbrush spray method was adopted for the determination of the activity, with armyworm, Plutella xylostella and Chilo suppressalis as targets. […]
Recorded pest or weed control at 10 µg/mL for the following compounds
Report the figure in % without appending any unit label.

Known results for compounds:
{"Compound": "N#CCN(C(=O)c1ccc(F)cc1)c1cccc(C(=O)Nc2c(Br)cc(C(F)(C(F)(F)F)C(F)(F)F)cc2Br)c1F", "pest or weed control at 10 µg/mL / %": 100}
{"Compound": "N#CCN(C(=O)c1ccc(C#N)cc1)c1cccc(C(=O)Nc2c(Br)cc(C(F)(C(F)(F)F)C(F)(F)F)cc2Br)c1F", "pest or weed control at 10 µg/mL / %": 100}

Shift focus to the following entry.
For reference, reported pest or weed control at 10 µg/mL for COCN(C(=O)c1ccccc1)c1cccc(C(=O)N(C)c2c(C)cc(C(F)(C(F)(F)F)C(F)(F)F)cc2C)c1 [CK1, reference compound] stands at 0
